Target: StAR-related lipid transfer protein 3 (Homo sapiens, UniProt Q14849)
Sequence (Q14849 whole entry): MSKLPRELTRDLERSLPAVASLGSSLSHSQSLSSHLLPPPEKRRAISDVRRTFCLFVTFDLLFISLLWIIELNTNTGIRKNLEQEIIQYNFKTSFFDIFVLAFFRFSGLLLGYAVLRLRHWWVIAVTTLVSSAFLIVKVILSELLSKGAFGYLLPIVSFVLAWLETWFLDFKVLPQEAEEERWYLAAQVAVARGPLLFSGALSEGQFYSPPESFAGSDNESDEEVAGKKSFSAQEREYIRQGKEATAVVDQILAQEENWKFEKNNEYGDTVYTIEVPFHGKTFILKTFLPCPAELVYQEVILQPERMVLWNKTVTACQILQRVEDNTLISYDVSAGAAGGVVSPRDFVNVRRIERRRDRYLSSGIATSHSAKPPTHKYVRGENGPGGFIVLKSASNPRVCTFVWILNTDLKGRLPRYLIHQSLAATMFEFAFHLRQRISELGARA
Assay: Inhibition of recombinant human His-tagged StAR-related lipid transfer protein 3 START domain expressed in Escherichia coli BL21(DE3) cells assessed as reduction of protein interaction with cholesterol using 3-hexanoyl-NBD Cholesterol as substrate incubated for 5 mins by competition binding fluorescent assay
pIC50: −log10 of the molar value.
Listed compounds paired with reported pIC50
value.kind: pIC50

>>> print(df.to_string())
                        structure_as_smiles  observed_value
0  O=C(COC(=O)c1ccc(-c2ccc(O)cc2)cc1)NCc1ccc(F)cc1          < 4.00
1  O=C(/C=C/c1ccccc1F)Nc1ccc(N2CCNC(=O)C2)c(Cl)c1          < 4.00
2  O=c1nc(/C=C/c2ccc(O)c([N+](=O)[O-])c2)[nH]c2c1CCN(Cc1ccccc1)C2            4.46
3  O=C1CN(c2ccc(NC(=O)c3csc(-c4cccc(Cl)c4)n3)cn2)CCN1          < 4.00
